# Assay Notes: viability loss in pontine glioma line – cell-based, SU-DIPG-XIII, MIPE5.0, CellTiter-Glo, qHTS, dose response (AID 1347064);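 as to AC50: cells exposed to compound for 48 hours before the viability read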
# Experimental Context: CellTiter-Glo ATP luminescence
Results filed as inconclusive are left out. Active and inactive are the calls of the source. The limit is not given here; nearly all actives have AC50 up to about 23 µM.
Reported Metric: AC50

Compound	AC50
N[C@@]1(C(=O)O)CS(=O)(=O)[C@H]2[C@H](C(=O)O)[C@H]21	inactive
CCOc1cc2c(c(F)c1OCC)C(=N)N(CC(=O)c1cc(N3CCOCC3)c(OC)c(C(C)(C)C)c1)C2	29.5 µM (active)
COc1cc2ncnc(Oc3cccc(NC(=O)Nc4cc(C(C)(C)C(F)(F)F)on4)c3)c2cc1OC	16.6 µM (active)
O=C(Nc1ncc(SCCN2CCCC2)s1)[C@]1(c2ccc(S(=O)(=O)C3CC3)cc2)C[C@H]1C1CCCCC1	16.6 µM (active)
C[C@]12CC[C@H](O)CC1=CC[C@@H]1[C@@H]2CC[C@]2(C)C(c3cccnc3)=CC[C@@H]12	inactive

Parameters: items (list). Returns: AC50 for each item.
1. CN1CCN(c2cccc(Nc3nc4c(-c5ccc(S(C)(=O)=O)cc5)cccn4n3)c2)CC1
2. CC#CC(=O)N1CCC[C@H]1c1nc(-c2ccc(C(=O)Nc3ccccn3)cc2)c2c(N)nccn12
3. COc1ccc(C2(C#N)CCC(C(=O)O)CC2)cc1OC1CCCC1 (centres undefined)
4. CCCCc1nc2cc(/C=C/C(=O)NO)ccc2n1CCN(CC)CC
5. O=C(CO)N1CCC(c2[nH]nc(-c3ccc(Cl)cc3)c2-c2ccncn2)CC1
6. CCOc1ccc(Cc2cc([C@@H]3O[C@H](CO)[C@@H](O)[C@H](O)[C@H]3O)ccc2Cl)cc1
7. CC(C)c1c2cc(-c3ccnc(NC4CCC(NC5CCOCC5)CC4)n3)ccc2nn1C (centres undefined)
8. OC1CCC([C@H](O)C[C@H]2c3c(F)cccc3-c3cncn32)CC1 (some centres undefined)

stdout:
1: 16.6 µM (active); 2: inactive; 3: inactive; 4: 1.32 µM (active); 5: inactive; 6: inactive; 7: 0.372 µM (active); 8: inactive

Parameters: items (list). Returns: AC50 for each item.
1. COc1cc2nccc(Oc3ccc(NC(=O)NC4CC4)c(Cl)c3)c2cc1C(N)=O
2. CC(C)N(CCCNC(=O)Nc1ccc(C(C)(C)C)cc1)C[C@H]1O[C@@H](n2ccc3c(N)ncnc32)[C@H](O)[C@@H]1O
3. O=C(/C=C/c1ccc2ccc(C(F)(F)F)cc2n1)c1ccncc1
4. Cc1c(-c2ccc(-c3ccccc3F)cc2)nc2ccc(F)cc2c1C(=O)O
5. CCCCC(F)(F)[C@@]1(O)CC[C@H]2[C@@H](CC(=O)[C@@H]2CCCCCCC(=O)O)O1

stdout:
["4.68 µM (active)", "inactive", "1.48 µM (active)", "inactive", "inactive"]

stdin: Which AC50 value is on record for "Cc1cc(Nc2cc(NC(=O)c3c(Cl)cccc3Cl)ccn2)nc(N)n1" ?
stdout: 8.33 µM (active)

====

Give viability for every item shown.
# Assay Notes: drug combination growth inhibition, ovarian cancer – cell-based, oncology-focused library, rucaparib conditional, profiling panel (AID 1508598)
# Experimental Context: patient-derived ovarian cancer cells, CellTiter-Glo viability, 144 h; at 0.313 µM; OCI-C5x cells; with rucaparib 10 µM; active compounds read low; 100% = cells with rucaparib alone
Numbers only, in %.

Compound	Unit Of Measurement	viability
CC(C)c1cc(-c2n[nH]c(=O)n2-c2ccc3c(ccn3C)c2)c(O)cc1O	%	11.6
Cc1csc(-c2nnc(Nc3ccc(Oc4ncccc4-c4ccnc(N)n4)cc3)c3ccccc23)c1	%	79.9
Cc1cnc(-c2ccccc2C(C)C)nc1NCc1ccc(-n2ccnn2)cc1	%	126
CC(C)(C)Cn1c(N)nc2ccc(-c3[nH]c(C(C)(C)C)nc3-c3ccc(F)cc3)nc21	%	94.5
Oc1cccc(-c2nc(N3CCOCC3)c3oc4ncccc4c3n2)c1	%	123
O=C(c1cc(Cc2n[nH]c(=O)c3ccccc23)ccc1F)N1CCN(C(=O)C2CC2)CC1	%	118

Parameters: items (list). Returns: viability for each item.
1. NC(=O)c1ccc(I)c([N+](=O)[O-])c1
2. CN(c1ncccc1CNc1nc(Nc2ccc3c(c2)CC(=O)N3)ncc1C(F)(F)F)S(C)(=O)=O
3. CN[C@H]1CN(c2ccc3c(=O)c(C(=O)O)cn(-c4nccs4)c3n2)C[C@@H]1OC
4. O=C(NOC[C@H](O)CO)c1ccc(F)c(F)c1Nc1ccc(I)cc1F
5. CN1CCN(CCOc2cc(OC3CCOCC3)c3c(Nc4c(Cl)ccc5c4OCO5)ncnc3c2)CC1
6. COc1ccc(COc2cc3oc(=O)c4cc(C(C)O)ccc4c3cc2OC)cc1 (centres undefined)
7. Cn1cncc1[C@@](N)(c1ccc(Cl)cc1)c1ccc2c(c1)c(-c1cccc(Cl)c1)cc(=O)n2C

stdout:
1. 115
2. 110
3. 143
4. 98.2
5. 104
6. 113
7. 113

====

# Assay Notes: growth inhibition, single agents and combos, HD-MB03, cell-based, BGB or cisplatin IC20 combos, synergistic combos for chromothripsis tumors (AID 1671455);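 also: 0% = vehicle DMSO and 100% = high DMSO as cytotoxic control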
# Experimental Context: HD-MB03 medulloblastoma cells, at 0.5 µM, active compounds read high
Give inhibition for every item shown.
One number for each entry, in %.

Sample answers from the record:
Mol Smiles	Observed Value
CC(=O)Nc1ccc(C(=O)Nc2ccccc2N)cc1	-2.82
CN(C)c1ccc(C(=O)NCCCCCCC(=O)NO)cc1	47.5
CN(C)CCN1C(=O)c2cccc3cc(N)cc(c23)C1=O	1.51
CC(C)OC(=O)[C@H](C)N[P@](=O)(OC[C@H]1O[C@@H](n2ccc(=O)[nH]c2=O)[C@](C)(F)[C@@H]1O)Oc1ccccc1	-3.62

stdin: Which inhibition value is on record for "Cc1cn([C@@H]2O[C@H](CO)[C@@H](O)[C@@H]2F)c(=O)[nH]c1=O" ?
stdout: -11.4

====

# Assay Notes: viability loss in pontine glioma line – cell-based, SU-DIPG-XXV, MIPE5.0, CellTiter-Glo, qHTS, dose response (AID 1347065);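 also: cells exposed to compound for 48 hours before ATP readout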
# Experimental Context: CellTiter-Glo ATP luminescence
Records with an inconclusive call do not appear. Active and inactive are the calls of the source. No cut-off is given here; in the data, nearly all actives have AC50 up to about 26 µM.
Choose one outcome from this list and give only that: active, inactive

Example results:
Mol Smiles	Class
Cc1cnc(NC(=O)c2cc(Oc3cnc(C(=O)N(C)C)nc3)c3cc(C)oc3c2)cn1	inactive
Cc1cc(Nc2nc(N[C@@H](C)c3ccc(F)cc3)c(C#N)cc2F)n[nH]1	active
COc1cc(OC)c(/C=C/S(=O)(=O)Cc2ccc(OC)c(OP(=O)(O)O)c2)c(OC)c1	active

stdin: I'd appreciate the recorded outcome for "COc1c(C)cnc(Cn2cnc3c(Cl)nc(N)nc32)c1C" from this test.
stdout: active

stdin: I'd appreciate the recorded outcome for "C[C@@H]1CCN(C(=O)CC#N)C[C@@H]1N(C)c1ncnc2[nH]ccc12" from this test.
stdout: inactive

====

# Assay Notes: viability loss in pontine glioma line – cell-based, SU-DIPG-XXV, MIPE5.0, CellTiter-Glo, qHTS, dose response (AID 1347065);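 also: cells exposed to compound for 48 hours before ATP readout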
# Experimental Context: CellTiter-Glo ATP luminescence
Inconclusive results are not listed. Calls of active or inactive are those of the source. The limit is not given here; nearly all actives have AC50 up to about 26 µM.
Choose one outcome from this list and give only that: Yes for active, No for inactive

Example results:
Compound	Class
COC(=O)Nc1ccc(-c2nc(N3CCOCC3)c3cnn(C4CCN(C(=O)OC)CC4)c3n2)cc1	Yes
Nc1nc2cc(-c3ccc4ncc(C(=O)N5CCOCC5)n4c3)ccc2o1	Yes
Nc1ccc(/C=C/C(=O)NCc2cc3cc(-c4ccc(C(=O)N5CCC(F)(F)CC5)cc4)cc(-c4ccc(F)cc4)c3o2)cn1	Yes
NC(=O)c1cnc(N[C@@H]2CCCC[C@@H]2N)nc1Nc1cccc(-n2nccn2)c1	Yes
CCN1CCN(Cc2ccc(NC(=O)c3ccc(C)c(NC(=O)c4cncc(-c5cccs5)c4)c3)cc2C(F)(F)F)CC1	Yes

stdin: I'd appreciate the recorded outcome for "COc1cc2ncnc(Nc3ccc(O)c(Br)c3)c2cc1OC" from this test.
stdout: Yes

stdin: I'd appreciate the recorded outcome for "Cc1cc(C)cc(Oc2ccc(CNC(=O)[C@H](C)N)cc2C)c1" from this test.
stdout: Yes

stdin: I'd appreciate the recorded outcome for "CC(C)c1cc(C(C)C)c(CC(=O)NS(=O)(=O)Oc2c(C(C)C)cccc2C(C)C)c(C(C)C)c1" from this test.
stdout: Yes

stdin: I'd appreciate the recorded outcome for "NS(=O)(=O)c1ccc(NC2=CC(=O)c3ccccc3C2=O)cc1" from this test.
stdout: Yes

stdin: I'd appreciate the recorded outcome for Cc1c(NC(=O)OCC2COCCN2)cn2ncnc(Nc3ccc4c(cnn4Cc4cccc(F)c4)c3)c12 (stereo not drawn) from this test.
stdout: Yes

stdin: I'd appreciate the recorded outcome for "C[C@@H](Oc1cc(-n2cnc3ccc(CN4CCN(C)CC4)cc32)sc1C(N)=O)c1ccccc1C(F)(F)F" from this test.
stdout: Yes

stdin: I'd appreciate the recorded outcome for "O=c1c(-c2ccc(O)cc2)coc2cc(O[C@@H]3O[C@H](CO)[C@@H](O)[C@H](O)[C@H]3O)ccc12" from this test.
stdout: No

stdin: I'd appreciate the recorded outcome for "CC(=O)OCC(=O)[C@@]1(O)[C@H](C)C[C@H]2[C@@H]3C=C(C)C4=Cc5c(cnn5-c5ccccc5)C[C@]4(C)[C@H]3[C@@H](O)C[C@@]21C" from this test.
stdout: Yes

stdin: I'd appreciate the recorded outcome for "CCn1cc(-c2ccnc3[nH]c(-c4cccc(CN(C)C)c4)cc23)c(-c2ccc(NC(=O)N(C)C)cc2)n1" from this test.
stdout: Yes

stdin: I'd appreciate the recorded outcome for "COc1ccc2c(c1)c(C1=C(c3c[nH]c4ccccc34)C(=O)NC1=O)cn2CCCN(C)C" from this test.
stdout: Yes

stdin: I'd appreciate the recorded outcome for "CCCCC(F)(F)[C@@]1(O)CC[C@H]2[C@@H](CC(=O)[C@@H]2CCCCCCC(=O)O)O1" from this test.
stdout: No

stdin: I'd appreciate the recorded outcome for "CC(C)c1ccccc1Cc1cc(C(=O)Nc2ccc(S(=O)(=O)c3ccccc3C(C)(C)C)cc2)c(O)c(O)c1O" from this test.
stdout: Yes

stdin: I'd appreciate the recorded outcome for "O=C(O)CCCCCC(=O)NN=C1CCCC1" from this test.
stdout: No
